Biological target: Cytochrome P450 3A4 (Homo sapiens, UniProt P08684)
Sequence (P08684 whole entry): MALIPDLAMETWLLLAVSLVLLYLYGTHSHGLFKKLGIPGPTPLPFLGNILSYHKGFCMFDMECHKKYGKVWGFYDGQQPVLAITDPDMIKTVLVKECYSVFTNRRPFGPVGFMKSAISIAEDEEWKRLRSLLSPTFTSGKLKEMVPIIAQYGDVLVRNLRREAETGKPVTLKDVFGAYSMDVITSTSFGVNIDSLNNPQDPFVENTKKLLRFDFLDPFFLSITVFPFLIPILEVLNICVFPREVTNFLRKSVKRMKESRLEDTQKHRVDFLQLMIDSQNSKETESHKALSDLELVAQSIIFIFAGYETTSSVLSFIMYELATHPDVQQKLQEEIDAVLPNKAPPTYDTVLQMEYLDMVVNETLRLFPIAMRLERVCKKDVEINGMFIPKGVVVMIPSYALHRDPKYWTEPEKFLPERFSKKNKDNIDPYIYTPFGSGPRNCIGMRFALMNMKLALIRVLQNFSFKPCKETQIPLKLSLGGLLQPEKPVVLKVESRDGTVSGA
METRIC NAME: IC50

Q: Looking for the measured IC50 of C[C@@H]1CCCN1CCCOc1ccc(-c2ccc(=O)n(C)n2)cc1F , can you help?
Result: > 30 µM

----------
Histamine H3 receptor (Homo sapiens) data, read-out Ki
Sequence (Q9Y5N1 whole entry): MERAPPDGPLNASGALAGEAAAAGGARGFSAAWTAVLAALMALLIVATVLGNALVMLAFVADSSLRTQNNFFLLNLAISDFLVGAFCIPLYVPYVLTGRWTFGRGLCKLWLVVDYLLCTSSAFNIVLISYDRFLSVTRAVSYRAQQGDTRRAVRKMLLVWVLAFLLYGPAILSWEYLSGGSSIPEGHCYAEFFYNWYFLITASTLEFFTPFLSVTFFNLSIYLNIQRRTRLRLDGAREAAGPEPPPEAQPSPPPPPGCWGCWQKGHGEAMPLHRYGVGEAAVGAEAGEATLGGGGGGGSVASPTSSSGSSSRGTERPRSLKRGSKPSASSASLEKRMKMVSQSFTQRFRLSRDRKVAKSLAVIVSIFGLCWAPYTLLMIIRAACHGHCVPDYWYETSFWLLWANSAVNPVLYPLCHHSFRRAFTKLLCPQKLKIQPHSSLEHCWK
Give bare numbers, in nM.

Below: 5 compounds and their reported Ki.
| SAMPLE SMILES | MEASURED ON | QUANTITY UNIT | NUMBER |
| --- | --- | --- | --- |
| Cc1cc(=O)[nH]nc1-c1ccc(OCCCN2CCC[C@H]2C)cc1 | Histamine H3 receptor (Homo sapiens) | nM | 2.9 |
| C[C@H](COc1ccc(-c2ccc(=O)n(C)n2)cc1)CN1CCC[C@H]1C | Histamine H3 receptor (Homo sapiens) | nM | 2.4 |
| C[C@@H](COc1ccc(-c2ccc(=O)n(C)n2)cc1)CN1CCC[C@H]1C | Histamine H3 receptor (Homo sapiens) | nM | 15 |
| Cc1cc(-c2ccc(OCCCN3CCC[C@H]3C)cc2)n[nH]c1=O | Histamine H3 receptor (Homo sapiens) | nM | 3.4 |
| C[C@@H]1CCCN1CCCOc1ccc(-c2cc(-c3ccccn3)c(=O)[nH]n2)cc1 | Histamine H3 receptor (Homo sapiens) | nM | 3.1 |

Batch: Ki for all items listed.
1. C[C@@H]1CCCN1CCCOc1ccc(-c2ccc(=O)[nH]n2)cn1
2. C[C@@H]1CCCN1CCCOc1ccc(-c2ccc(=O)[nH]n2)cc1C#N
3. C[C@@H]1CCCN1CCCOc1ccc(-c2ccc(=O)n(CCO)n2)cc1
4. C[C@@H]1CCCN1CCCOc1ccc(-c2ccc(=O)n(CC(F)(F)F)n2)cc1

Result:
1: 35; 2: 38; 3: 3; 4: 5.7
